- system.under.test: T1, mouse IL-2Rγ (mouse) (UniProt P34902)
- T1 sequence (looked up): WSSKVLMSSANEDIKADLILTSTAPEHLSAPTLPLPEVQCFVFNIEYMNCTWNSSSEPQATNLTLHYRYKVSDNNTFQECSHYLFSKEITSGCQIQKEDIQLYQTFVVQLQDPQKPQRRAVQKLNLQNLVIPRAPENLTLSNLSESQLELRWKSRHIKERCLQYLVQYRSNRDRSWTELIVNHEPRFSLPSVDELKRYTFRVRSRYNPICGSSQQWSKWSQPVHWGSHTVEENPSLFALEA
- experiment.notes: PE binding ELISA, periplasmic extract on coated protein
recorded.metric: OD (PE binding ELISA) (OD450 nm)

| binder | unit.text | OD (PE binding ELISA) |
| --- | --- | --- |
| FJ1427_P035MP04G08 (VHH) VHH: QVQLVESGGGWVQVGESLRLSCAPSGRTFVSGIMGWFRQAPGKEREFVARIILNNNSTRYTDSVKGRFTISRDSAKNTMYLQMDSLRPEDTAVYYCAARDRYGSGNSLSPSAYDYWGQGTQVTVSS | OD450 nm | 0.049 |
| 27-MP04G01 (VHH) VHH: QVQLVESGGGLVQAGGSLTLSCAAPGRTFGTDVVGWFRQAPGKEREFVASISRSGDGIYYDDSVKGRFTISRNNAWNTVNLQMNSLKVEDTAVYYCAAGDGWSTYDYWGQGTQVTVSS | OD450 nm | 0.048 |
| FJ1427_P035MP04B02 (VHH) VHH: QVQLVESGGGWVQVGESLRLSCAPSGRTFVSGIMGWFRQTPGKEREFVARIILNNNSTRYTDSVKGRFTISRDSAKNTMYLQMNTLRPEDTAVYYCAARDRYGSGNSLSPSAYDYWGQGTQVTVSS | OD450 nm | 0.048 |
| FJ1427_P035MP04C10 (VHH) VHH: QVQLQESGGGWVQVGESLRLSCVPSGRTFVSGIMGWFRQAPGKEREFVARIILNNNSTRYTDSVKGRFTISRDSAKNTMYLQMNTLRPEDTAVYYCAARDRYGSGNSLSPSAYDYWGQGTQVTVSS | OD450 nm | 0.047 |
| FJ1427_P035MP04A11 (VHH) VHH: QVQLVESGGGLVQAGESLRLSCAASGPTASRVAVAWFRQVPGKEREFVAVVNRPGTMTKYADSVKGRFTISRDSAKNTVYLQMNSLKPEDTAVYYCAADSVPYGRPYYFQTSAGNYDYWGQGTQVTVSS | OD450 nm | 0.05 |
| FJ1427_P035MP04A09 (VHH) VHH: QVQLVESGGGLVQAGGSLRLSCAASGRTFGAVAVGWFRQVPGKEREFVAAINRNGSATKYADSAKGRFTISRDNAESPVYLQMNSLKPEDTAIYYCAADSLPYGRPYYFQTSAGEYDYWGQGTQVTVSS | OD450 nm | 0.049 |
| FJ1427_P035MP04B03 (VHH) VHH: QVQLQESGGGLVQAGESLRLSCAASGPTASRVAVAWFRQVPGKEREFVAVVNRPGTMTKYADSVKGRFTISRDSAKNTVYLQMNSLKPEDTAVYYCAADSVPYGRPYYFQTSAGNYDYWGQGTQVTVSS | OD450 nm | 0.048 |
| FJ1427_P035MP04E02 (VHH) VHH: QVQLVESGGGWVQVGESLRLSCAPSGRTFVSGIMGWFRQTPGKEREFVARIILNNNSTRYTDSVKGRFTISRDSAKNTMYLQMNTLRPEDTAVYYCAARDRYGSGNSLSPSAYDYWGQGTQVTVSS | OD450 nm | 0.049 |
